Attribution: PubChem BioAssay

I'd appreciate it if you could supply z-score values for the items below.
experiment: DUSP6 inhibitors restoring Erk phosphorylation by chemical complementation, primary imaging in DUSP6-transfected HeLa (AID 609); conditions: HeLa MKP-3 transfected, phospho-Erk imaging KS statistic; measured here: nuclear pErk red intensity z-score; at 10 µM; stronger effect = higher value; cells stimulated with TPA for 15 min
Lab note: record just the number, no unit beside it.

Q) Could you share which z-score value was measured for CCOC(=O)CCc1c(C)c(C#N)c2nc3ccccc3n2c1-n1ccnc1 ?
A) 0.783

Q) Could you share which z-score value was measured for COc1cc(-n2c3nc4ccccc4nc3c3c(=O)n(Cc4ccco4)cnc32)cc(OC)c1OC ?
A) 0.876

Q) Could you share which z-score value was measured for C=CCOc1nc2c(c(=O)n(C)c(=O)n2C)n1Cc1ccc(Cl)cc1Cl ?
A) 0.979

Q) Could you share which z-score value was measured for COC(=O)c1cc(S(=O)(=O)N2CCOCC2)c(N2CCOCC2)cc1N1CCOCC1 ?
A) 0.265

Q) Could you share which z-score value was measured for Nc1ccc(S(=O)(=O)c2ccc(N)cc2)cc1 ?
A) 0.308

Q) Could you share which z-score value was measured for C=CCOC(=O)C1=C(C)OC(N)=C(C#N)C1c1ccoc1 (centres undefined) ?
A) 0.124

Q) Could you share which z-score value was measured for O=C(NCc1cccnc1)/C(=N\O)c1ccccc1 ?
A) -0.943

Q) Could you share which z-score value was measured for Nc1ccc(S(=O)(=O)NC(=O)c2ccccc2)cc1 ?
A) 0.397

Q) Could you share which z-score value was measured for CN(CC(O)COc1ccc(OCC(O)CN(C)C2CCCCC2)cc1)C1CCCCC1 (centres undefined) ?
A) 1.26

Q) Could you share which z-score value was measured for CC(C)OC(=O)CC1=NC(=O)CS1 ?
A) 0.103

Q) Could you share which z-score value was measured for CC[C@]1(O)CC2CN(CCc3c([nH]c4ccccc34)[C@@](C(=O)OC)(c3cc4c(cc3OC)N(C=O)[C@H]3[C@@](O)(C(=O)OC)[C@H](OC(C)=O)[C@]5(CC)C=CCN6CC[C@]43[C@@H]65)C2)C1 (some centres undefined) ?
A) 1.19

Q) Could you share which z-score value was measured for CCCCNC(=O)N(C)c1nncnc1C(=O)NC ?
A) 0.32

Q) Could you share which z-score value was measured for CCOC(=O)C1=C(C)NC(=O)NC1c1ccc2c(c1)OCO2 (centres undefined) ?
A) -0.648

Q) Could you share which z-score value was measured for CC(C)N1CC=C2C(C#N)=C(N)C(C#N)(C#N)C(c3ccccc3)C2C1 (centres undefined) ?
A) 1.58

Q) Could you share which z-score value was measured for CCCOc1ccc(/C(O)=C2/C(=O)C(=O)N(CCCn3ccnc3)C2c2cccs2)cc1 (centres undefined) ?
A) 0.12

Q) Could you share which z-score value was measured for CCN(CC)CCOC(=O)C1(C2CCCCC2)CCCCC1 ?
A) 1.64

Q) Could you share which z-score value was measured for CC(=O)Nc1cc2c(cc1Br)OCCO2 ?
A) -0.826

Q) Could you share which z-score value was measured for CCCCc1c(C)nn(-c2nnc3c4ccccc4n(C)c3n2)c1C ?
A) -0.403

Q) Could you share which z-score value was measured for OC(CCCN1CCC(O)(c2ccc(Cl)cc2)CC1)c1ccc(F)cc1 (centres undefined) ?
A) -0.848

Q) Could you share which z-score value was measured for O=C(CCN1C(=O)c2ccccc2C1=O)OCN1C(=O)c2ccccc2C1=O ?
A) -0.92

Q) Could you share which z-score value was measured for NCc1ccc(S(N)(=O)=O)cc1 ?
A) -0.92

Q) Could you share which z-score value was measured for CCOc1ccc(C2/C(=C(/O)c3ccc(F)cc3)C(=O)C(=O)N2CCCN(C)C)cc1 (centres undefined) ?
A) -0.309

Q) Could you share which z-score value was measured for CCCCCCn1c(SCCN2CCOCC2)nc2c1c(=O)[nH]c(=O)n2C ?
A) 0.83

Q) Could you share which z-score value was measured for COc1ccccc1NC(=O)C1=C(C)NC(SCC(=O)c2ccc(C)cc2)=C(C#N)C1c1ccco1 (centres undefined) ?
A) 1.41

Q) Could you share which z-score value was measured for CC1=C(C(=O)Nc2ccccc2)C(c2ccncc2)C(C#N)=C(SCC(=O)NC(C)C)N1 (centres undefined) ?
A) 0.309

Q) Could you share which z-score value was measured for O=C(Nc1nc(=O)c2ccccc2s1)c1ccccc1 ?
A) 0.0783

Q) Could you share which z-score value was measured for Cn1c(O)c(C=Nc2ccc(Cc3ccncc3)cc2)c(=O)n(C)c1=O ?
A) 0.687

Q) Could you share which z-score value was measured for COc1cccc(/C=C2/CN(C)CC3=C2OC(N)=C(C#N)C3c2cccc(OC)c2)c1 (centres undefined) ?
A) -1.64

Q) Could you share which z-score value was measured for CCOC(=O)c1ccc(CC2S/C(=C(\C#N)C(C)=O)NC2=O)cc1 (centres undefined) ?
A) 0.337

Q) Could you share which z-score value was measured for O=C(NCc1ccco1)c1cnn2c(C(F)(F)F)cc(-c3ccco3)nc12 ?
A) -1.31

Q) Could you share which z-score value was measured for Fc1cnc(N2CCOCC2)nc1NCc1ccccc1 ?
A) 0.114

Q) Could you share which z-score value was measured for O=C1[C@@H]2[C@H](C(=O)N1O)[C@H]1C=C[C@@H]2C1 ?
A) 0.777

Q) Could you share which z-score value was measured for Cn1c(=O)n(CCc2ccccc2)c(=O)c2c1ncn2Cc1ccccc1 ?
A) -0.503

Q) Could you share which z-score value was measured for CC1CNCCN1S(=O)(=O)c1cccc2cnccc12 (centres undefined) ?
A) -0.173

Q) Could you share which z-score value was measured for CN1CCN(c2nc(C(N)=O)cc(-c3ccccc3)n2)CC1 ?
A) 0.112

Q) Could you share which z-score value was measured for O=C(NCc1ccco1)c1ccc(=O)oc1 ?
A) -1.31

Q) Could you share which z-score value was measured for N#CC(C(=O)NC1CCCCC1)c1nc2ccccc2nc1N1CCN(c2ccccc2F)CC1 (centres undefined) ?
A) 0.00921

Q) Could you share which z-score value was measured for CC(C)C1C(C#N)=C(N)Oc2n[nH]c(C(C)(C)C)c21 (centres undefined) ?
A) -1.21

Q) Could you share which z-score value was measured for COc1ccc(-n2ccc(=O)c3c2CCCC3=O)cc1 ?
A) 0.919

Q) Could you share which z-score value was measured for CCOc1cccc(-c2nn3c(-c4ccccn4)nnc3s2)c1 ?
A) 0.934

Q) Could you share which z-score value was measured for Cc1nc(NS(=O)(=O)c2ccccc2)sc1NC(=O)OC(C)C ?
A) 0.551

Q) Could you share which z-score value was measured for Nc1nonc1-c1noc(N2CCOCC2)n1 ?
A) 0.227

Q) Could you share which z-score value was measured for N#CC12CCCCC1CC1CCCCC1(C#N)N2Cc1cccnc1 (centres undefined) ?
A) -1.61

Q) Could you share which z-score value was measured for CCCCCNC(=O)c1c(N)n(/N=C/c2ccco2)c2nc3ccccc3nc12 ?
A) -0.977

----------
target: Voltage-gated potassium channel subunit beta-2 (Rattus norvegicus) (UniProt P62483); test: KvBeta positive modulators, primary screen, biochemical, NADPH fluorescence (AID 623); settings: Recombinant KvBeta, NADPH fluorescence decrease slope, 10 min; at 10 µM; stronger effect = lower value;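 also: fluorescence intensity change per second fitted from 20 to 320 s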
Sequence (P62483 whole entry, looked up): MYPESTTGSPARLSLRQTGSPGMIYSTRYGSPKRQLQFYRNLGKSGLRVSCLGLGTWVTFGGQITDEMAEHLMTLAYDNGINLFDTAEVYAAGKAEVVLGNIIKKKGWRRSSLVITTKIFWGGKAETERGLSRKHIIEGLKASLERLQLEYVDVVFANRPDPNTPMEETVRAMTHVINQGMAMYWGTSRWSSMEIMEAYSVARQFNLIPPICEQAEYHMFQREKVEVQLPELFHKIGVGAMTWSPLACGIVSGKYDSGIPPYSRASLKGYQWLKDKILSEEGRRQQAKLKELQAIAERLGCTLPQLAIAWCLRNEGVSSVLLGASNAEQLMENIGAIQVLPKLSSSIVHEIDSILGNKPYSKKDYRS
Readout type: NADPH fluorescence slope
Lab note: record just the number, no unit beside it.

Q) Could you share which NADPH fluorescence slope value was measured for O=C(c1ccc(F)cc1)N1CCC(N2CCCCCC2)CC1 ?
A) -7.7e-06

Q) Could you share which NADPH fluorescence slope value was measured for Cn1c(=O)c2[nH]cnc2n(C)c1=O ?
A) -2.6e-05

Q) Could you share which NADPH fluorescence slope value was measured for N#Cc1ccc(-c2ccco2)nc1SCC(=O)c1ccc(Cl)cc1 ?
A) -2.9e-05

Q) Could you share which NADPH fluorescence slope value was measured for S=c1nc(-c2ccccc2)[nH]n1-c1ccccc1 ?
A) 3.3e-06

Q) Could you share which NADPH fluorescence slope value was measured for Cc1[nH]nc2c1C(CCc1ccccc1)C(C#N)=C(N)O2 (stereo not given) ?
A) -3.1e-05

Q) Could you share which NADPH fluorescence slope value was measured for C[C@]12CC[C@@H]3c4ccc(O[C@@H]5O[C@H](C(=O)O)[C@@H](O)[C@H](O)[C@H]5O)cc4CC[C@H]3[C@@H]1C[C@@H](O)[C@@H]2O ?
A) -4.1e-05

Q) Could you share which NADPH fluorescence slope value was measured for CC(=O)C1(C)OC(N)=C(C#N)C(c2ccccc2)C1(C#N)C#N (stereo not given) ?
A) 2.9e-06

Q) Could you share which NADPH fluorescence slope value was measured for Cc1cc(C)n(CC2CC(=O)N(c3ccc(Cl)c(Cl)c3)C2=O)n1 (stereo not given) ?
A) -5.7e-05

Q) Could you share which NADPH fluorescence slope value was measured for Cc1ccc(S(=O)(=O)/C(C#N)=C/c2c(N3CCN(C)CC3)nc3c(C)cccn3c2=O)cc1 ?
A) -4.1e-05

Q) Could you share which NADPH fluorescence slope value was measured for Cc1cc(C)nc(N(C#N)CC(=O)N(c2ccccc2)C(C)C)n1 ?
A) -2.8e-05
